Listed below: Hemolysis (HC10), concentration of compound at 10% hemolytic activity values for each entry.
# Test system: human red blood cells
# ASSAY REMARKS: Hemolytic assay
# Format: cell-based
# TEST CONTEXT: mean (n = 2)

{"MOLECULE": "O=C(C=Cc1ccccc1)NCCCNCCCCCCCCNCCCNC(=O)C=Cc1ccccc1.O=C(O)C(F)(F)F.O=C(O)C(F)(F)F [Compound 13d]", "ASSAY RESULT": ">42.9 µM"}
{"MOLECULE": "COc1ccc(/C=C/C(=O)NCCCNCCCCCCNCCCNC(=O)/C=C/c2ccc(OC)cc2)cc1.O=C(O)C(F)(F)F.O=C(O)C(F)(F)F [Compound 14b]", "ASSAY RESULT": ">41.1 µM"}

Attention now shifts to the item below.
Task: Look up and report measured Hemolysis (HC10), concentration of compound at 10% hemolytic activity (human red blood cells) for the following molecule: COc1ccc(/C=C/C(=O)NCCCNCCCCNCCCNC(=O)/C=C/c2ccc(OC)cc2)cc1.O=C(O)C(F)(F)F.O=C(O)C(F)(F)F [Compound 14a]
Output: >42.6 µM
